TARGET OR SYSTEM: human glucagon receptor (human, UniProt P47871 26-477)
METHOD DESCRIPTION: cell-based or functional assay
Starred links: 1 amine or outer side, 2 acyl side, 3 side chain; linkers in the order of their positions; H or OH if unused. Non-standard residues stand in square brackets, D forms with d. No end group written: not given here. ACPP = 2-amino-5-(3-chlorophenyl)pentanoic acid, O=C([C@H](CCCc1cccc(Cl)c1)N[*:1])[*:2]; Bip(2'-Et-4'-OMe) = CCc1cc(OC)ccc1-c1ccc(C[C@H](N)C(=O)O)cc1; 2F‑APPA = 2-amino-5-(2-fluorophenyl)pentanoic acid; αMePhe(2-F) = C[C@](N)(Cc1ccccc1F)C(=O)O; hhPhe = N[C@@H](CCCc1ccccc1)C(=O)O; aThr = C[C@H](O)[C@H](N)C(=O)O; αMeP = C[C@@]1(C(=O)O)CCCN1; Aib = CC(C)(N)C(=O)O
Some binders, each annotated with its measured inhibition of cAMP production, 1 nM.

{"columns": ["BINDER", "inhibition of cAMP production, 1 nM"],
 "data": [
  ["H[αMeP]QGTFTSD[Bip(2'-Et-4'-OMe)][ACPP] [Seq. ID. No. 11: H-(α-Me-Pro)-QGTFTSD-Bip(OMe)-(ACPP)]", "3 pmol/ml/µg prt"],
  ["H[αMeP]QGTFTSD[Bip(2'-Et-4'-OMe)][hhPhe] [Seq. ID. No. 9: H-(α-Me-Pro)-QGTFTSD-Bip(OMe)-(APPA)]", "5 pmol/ml/µg prt"],
  ["H[Aib]QG[aThr][αMePhe(2-F)][aThr]SD[Bip(2'-Et-4'-OMe)][2F‑APPA] (also: reduced (CH2) bond between 10 and 11) [Seq. ID. No. 191: H-Aib-QG-T(allo)-(α-Me-2F-Phe)-T(allo)-SD-Bip(OMe)-(CH2)-(2F-APPA)]", "4 pmol/ml/µg prt"]
]}
